System: murine red blood cells
Assay: Red blood cell hemolysis
Type: cell-based, mouse
Non-standard residues stand in square brackets, D forms with d. Residues, ends and D or L forms follow the SMILES beside them.
observation type: RBC Hemolysis (HD50)

Field: example entries. Status: answers known.
CC(C)C[C@H]1NC(=O)[C@H](CCCCN)NC(=O)[C@@H](Cc2c[nH]cn2)NC(=O)[C@H](CCC(N)=O)NC(=O)[C@@H](Cc2c[nH]cn2)NC(=O)[C@H](CCCCN)NC(=O)[C@@H](CC(C)C)NC(=O)[C@H](Cc2c[nH]c3ccccc23)NC1=O [SEQ ID NO:86, [KHQHKLWL]] (cyclo(K[dH]Q[dH]K[dL]W[dL])) :: >200
CC(C)C[C@H]1NC(=O)[C@H](CCCCN)NC(=O)[C@@H](CO)NC(=O)[C@H](CCCCN)NC(=O)[C@@H](CC(C)C)NC(=O)[C@H](Cc2c[nH]cn2)NC(=O)[C@@H](CC(C)C)NC(=O)[C@H](Cc2c[nH]cn2)NC1=O [SEQ ID NO:103, [KSKLHLHL]] (cyclo(K[dS]K[dL]H[dL]H[dL])) :: >320
CC(C)C[C@@H]1NC(=O)[C@@H](Cc2c[nH]c3ccccc23)NC(=O)[C@H](CCC(N)=O)NC(=O)[C@@H](Cc2c[nH]c3ccccc23)NC(=O)[C@H](CCCCN)NC(=O)[C@@H](Cc2c[nH]c3ccccc23)NC1=O [SEQ ID NO:116, [KWQWLW]] (cyclo(K[dW]Q[dW]L[dW])) :: >16
CC(C)C[C@@H]1NC(=O)[C@@H](Cc2ccccc2)NC(=O)[C@H](CCCCN)NC(=O)[C@@H](CCCCN)NC(=O)[C@H](CCCCN)NC(=O)[C@@H](Cc2ccccc2)NC(=O)[C@H](CC(C)C)NC(=O)[C@@H](Cc2ccccc2)NC1=O [SEQ ID NO:51, [KKKFLFLF]] (cyclo(K[dK]K[dF]L[dF]L[dF])) :: >300
CC(C)C[C@@H]1NC(=O)[C@@H](CCCNC(=N)N)NC(=O)[C@H](CCC(N)=O)NC(=O)[C@@H](CCCNC(=N)N)NC(=O)[C@H](Cc2c[nH]c3ccccc23)NC(=O)[C@@H](Cc2c[nH]c3ccccc23)NC(=O)[C@H](CC(C)C)NC(=O)[C@@H](Cc2c[nH]c3ccccc23)NC1=O [SEQ ID NO:69, [QRLWLWWR]] (cyclo(Q[dR]L[dW]L[dW]W[dR])) :: 35

Bench note: what RBC Hemolysis (HD50) did CC(C)C[C@@H]1NC(=O)[C@@H](Cc2c[nH]c3ccccc23)NC(=O)[C@H](CCCCN)NC(=O)[C@@H](Cc2c[nH]cn2)NC(=O)[C@H](CCCCN)NC(=O)[C@@H](Cc2c[nH]cn2)NC(=O)[C@H](CCCCN)NC(=O)[C@@H](Cc2c[nH]c3ccccc23)NC1=O [SEQ ID NO:85, [KHKHKWLW]] (cyclo(K[dH]K[dH]K[dW]L[dW])) show?
150
